Below, each of the sequences is paired with its reported pKd value.
- experimental-system: HLA-B*44:02
- assay-comment: IEDB peptide-MHC binding, purified MHC/direct/fluorescence; filed as Kd, often an IC50 or EC50 that approximates it; bounds were set here for any values at or beyond the usual limits of such assays
- run-conditions: source organism: Coxiella burnetii
pKd: −log10 of the molar value.

residue-sequence	measure-name	measured-value
YHFDPVHHL	pKd	≤ 4.70

Proceed to the following item.
**Q:** Look up and state reported pKd for `PEIRRWIIF`
**A:** ≤ 4.70

====

- experimental-system: HLA-A*02:02
- assay-comment: IEDB peptide-MHC binding, purified MHC/competitive/radioactivity; filed as Kd, often an IC50 or EC50 that approximates it; bounds were set here for any values at or beyond the usual limits of such assays
- run-conditions: source organism: Mammarenavirus brazilense
measure-name: Kd (nM)
Give the value in nM but do not write nM after it.

**Q:** Specify the recorded Kd for `KCFGNTALA` , system: HLA-A*02:02.
**A:** 31
